- Tested on: Bcl-2
- test description: Bcl-2 level ELISA in MCF-7 cells
- Type: cell-based, human
- measurement setup: MCF-7, at IC50, 24 h; control 6.56 ± 0.22
Kindly state Bcl-2 Conc.(ng/ml) for each of the entries shown.
One number for each entry, in ng/mL.

Consider the reported Bcl-2 Conc.(ng/ml) for these molecules:
INSERT INTO assay_data (molecule, assay_system, recorded_value) VALUES
  ('COc1ccc(-c2nc3sc4c(n3c(=O)c2C#N)C(=O)c2ccccc2C4=O)cc1OC [Compound 6c]', 'Bcl-2', 2.17),
  ('N#Cc1c(-c2ccc([N+](=O)[O-])cc2)nc2sc3c(n2c1=O)C(=O)c1ccccc1C3=O [Compound 6i]', 'Bcl-2', 3.64),
  ('COc1ccc(-c2nc3sc4c(n3c(=O)c2C#N)C(=O)c2ccccc2C4=O)cc1 [Compound 6a]', 'Bcl-2', 3.99);

Now for another entry.
So for COc1cccc2c1C(=O)c1c(O)c3c(c(O)c1C2=O)C[C@@](O)(C(=O)CO)C[C@@H]3O[C@H]1C[C@H](N)[C@H](O)[C@H](C)O1 [Dox, Doxorubicin, reference compound] , the logged Bcl-2 Conc.(ng/ml) turned out to be 1.66

----------
- Test system: p53
- test description: p53 level ELISA in MCF-7 cells
- Format: cell-based, human
- measurement setup: MCF-7, at IC50, fold of control cells
Kindly state p53 FLD for each of the entries shown.

Consider the reported p53 FLD for these compounds:
INSERT INTO assay_data (compound, recorded_value) VALUES
  ('COc1ccc(-c2nc3sc4c(n3c(=O)c2C#N)C(=O)c2ccccc2C4=O)cc1 [Compound 6a]', '3.6 fold'),
  ('N#Cc1c(-c2ccc([N+](=O)[O-])cc2)nc2sc3c(n2c1=O)C(=O)c1ccccc1C3=O [Compound 6i]', '5 fold'),
  ('COc1cccc2c1C(=O)c1c(O)c3c(c(O)c1C2=O)C[C@@](O)(C(=O)CO)C[C@@H]3O[C@H]1C[C@H](N)[C@H](O)[C@H](C)O1 [Dox, Doxorubicin, reference compound]', '4 fold');

Now for another entry.
So for COc1ccc(-c2nc3sc4c(n3c(=O)c2C#N)C(=O)c2ccccc2C4=O)cc1OC [Compound 6c] , the logged p53 FLD turned out to be 2.6 fold
